assay_remarks: In vivo pharmacokinetics after a single dose, dog
conditions_used: male, plasma; Beagle dog, 1 mg/kg IV
measure: half-life (h)
Unit h implied. Number only.

Answer with the recorded half-life for the compound listed here: CNC(=O)N1CCn2c(C3CCOCC3)nc(-c3cccc4nc(-c5cnc(C)s5)c(C(F)F)cc34)c2C1 [Compound 1] 3.42

====

assay_remarks: In vivo pharmacokinetics after a single dose, monkey
conditions_used: male, plasma; Cynomolgus monkey, 1 mg/kg IV; read-out: Vss
measure: Vd (L/kg)
Unit L/kg implied. Number only.

Answer with the recorded Vd for the compound listed here: CNC(=O)N1CCn2c(C3CCOCC3)nc(-c3cccc4nc(-c5cnc(C)s5)c(C(F)F)cc34)c2C1 1.06

====

assay_remarks: Metabolic stability in rat liver microsomes
Format: in vitro ADME
conditions_used: pH 7.4; Sprague Dawley rat liver microsomes 0.5 mg/mL, NADPH, 45 minutes, 37° C.; read-out: Half-life in liver microsomes (t1/2), Rat
Catalogue of half-life at 1 μM readings, one per entry.
Unit h implied. Number only.

CNC(=O)N1CCn2c(C3CCOCC3)nc(-c3cccc4nc(-c5cnc(C)s5)c(C(F)F)cc34)c2C1    3.22

The record that follows has no half-life at 1 μM shown yet.
Answer with the recorded half-life at 1 μM for the molecule listed here: CNC(=O)N1CCn2c(C3CCOCC3)nc(-c3cccc4cc(-c5cnc(C)s5)ncc34)c2C1 [Compound 4, reference compound] 8.45

====

assay_remarks: In vivo pharmacokinetics after a single dose, rat
conditions_used: male, plasma; Sprague-Dawley rat, 1 mg/kg IV; read-out: Vss
measure: Vd (L/kg)
Unit L/kg implied. Number only.

Answer with the recorded Vd for the compound listed here: CNC(=O)N1CCn2c(C3CCOCC3)nc(-c3cccc4nc(-c5cnc(C)s5)c(C(F)F)cc34)c2C1 0.908

====

assay_remarks: In vivo pharmacokinetics after a single dose, rat
conditions_used: male, plasma; Sprague-Dawley rat, 1 mg/kg IV
Method: IV (intravenous) doses were formulated in 20% DMSO+60% PEG400+20% water. PO (per os) doses were formulated in 0.5% methylcellulose in water. Rat: Male rats (SD strain, purchased from Shanghai JH Laboratory Animal Co. LTD) weighing 200-300 g were used for studies. Animals were fasted overnight and fed 4 h postdose. Water was available ad libitum for all animals. […] Test article concentrations in plasma were quantified using a liquid chromatography with tandem mass spectrometry (LC-MS/MS) method.
measure: half-life (h)
Unit h implied. Number only.

Answer with the recorded half-life for the compound listed here: CNC(=O)N1CCn2c(C3CCOCC3)nc(-c3cccc4nc(-c5cnc(C)s5)c(C(F)F)cc34)c2C1 2.99

====

assay_remarks: In vivo pharmacokinetics after a single dose, mouse
conditions_used: mouse, plasma; female CD-1 mice, single dose 0.2 or 0.3 mg/kg IV
Catalogue of half-life readings, one per entry.

CNC(=O)N1CCn2c(C3CCOCC3)nc(-c3cccc4nc(-c5cnc(C)s5)c(C(F)F)cc34)c2C1    4.47 h

The record that follows has no half-life shown yet.
Answer with the recorded half-life for the compound listed here: CNC(=O)N1CCn2c(C3CCOCC3)nc(-c3cccc4cc(-c5cnc(C)s5)ncc34)c2C1 [Compound 4, reference compound] 0.318 h

====

assay_remarks: In vivo pharmacokinetics after a single dose, dog
conditions_used: male, plasma; Beagle dog, 1 mg/kg IV; read-out: Vss
measure: Vd
Could you kindly put the unit after your number?

Answer with the recorded Vd for the compound listed here: CNC(=O)N1CCn2c(C3CCOCC3)nc(-c3cccc4nc(-c5cnc(C)s5)c(C(F)F)cc34)c2C1 1.57 L/kg

====

Catalogue of pIC50 readings, one per entry.
system_tested: GST-CBP (1081-1197) bromodomain (Homo sapiens)
Construct: The GST tagged bromodomains of CBP (1081-1197) and BRD4 (49-170) were obtained from BPS Bioscience
Sequence (Q92793 1081-1197): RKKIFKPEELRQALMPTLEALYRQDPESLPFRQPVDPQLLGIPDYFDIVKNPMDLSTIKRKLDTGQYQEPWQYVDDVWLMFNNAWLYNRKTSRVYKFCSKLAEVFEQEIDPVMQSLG
assay_remarks: CBP AlphaScreen assay
conditions_used: biotin-H4 (1-21) Ac-K5/8/12/16 peptide
For clarity, pIC50 is expressed as the negative log10 of concentration in mol/L.

CC(=O)N1CCn2c(C3CCOCC3)nc(-c3cccc4nc(-c5ccc(C)nc5)c(C(F)F)cc34)c2C1 [Compound 3]    7.77
CC(=O)N1CCn2c(C3CCOCC3)nc(-c3cccc4nc(-c5cnc(C)s5)c(C(F)F)cc34)c2C1 [Compound 2]    8.70

The record that follows has no pIC50 shown yet.
Answer with the recorded pIC50 for the compound listed here: CNC(=O)N1CCn2c(C3CCOCC3)nc(-c3cccc4nc(-c5cnc(C)s5)c(C(F)F)cc34)c2C1 [Compound 1] 8.52

====

system_tested: BRD4 (49-170) bromodomain (Homo sapiens)
Construct: The GST tagged bromodomains of CBP (1081-1197) and BRD4 (49-170) were obtained from BPS Bioscience
assay_remarks: BRD4 AlphaScreen assay
conditions_used: biotin-H4 (1-21) Ac-K5/8/12/16 peptide
measure: pIC50
For clarity, pIC50 is expressed as the negative log10 of concentration in mol/L.

CC(=O)N1CCn2c(C3CCOCC3)nc(-c3cccc4nc(-c5cnc(C)s5)c(C(F)F)cc34)c2C1    5.71
CC(=O)N1CCn2c(C3CCOCC3)nc(-c3cccc4nc(-c5ccc(C)nc5)c(C(F)F)cc34)c2C1    5.13

The record that follows has no pIC50 shown yet.
Answer with the recorded pIC50 for the compound listed here: CNC(=O)N1CCn2c(C3CCOCC3)nc(-c3cccc4nc(-c5cnc(C)s5)c(C(F)F)cc34)c2C1 5.32

====

assay_remarks: In vivo pharmacokinetics after a single dose, rat
conditions_used: male, plasma; Sprague-Dawley rat, 1 mg/kg IV
measure: clearance (mL/min/kg)
Unit mL/min/kg implied. Number only.

Answer with the recorded clearance for the molecule listed here: CNC(=O)N1CCn2c(C3CCOCC3)nc(-c3cccc4nc(-c5cnc(C)s5)c(C(F)F)cc34)c2C1 8.92

====

assay_remarks: In vivo pharmacokinetics after a single dose, dog
conditions_used: male, plasma; Beagle dog, 1 mg/kg IV
measure: clearance (mL/min/kg)
Unit mL/min/kg implied. Number only.

Answer with the recorded clearance for the compound listed here: CNC(=O)N1CCn2c(C3CCOCC3)nc(-c3cccc4nc(-c5cnc(C)s5)c(C(F)F)cc34)c2C1 6.72

====

assay_remarks: In vivo pharmacokinetics after a single dose, mouse
conditions_used: mouse, plasma; female CD-1 mice, single dose 0.2 or 0.3 mg/kg IV; read-out: Clearance (converted)
Catalogue of clearance readings, one per entry.
Unit mL/min/kg implied. Number only.

Answer with the recorded clearance for the compound listed here: CNC(=O)N1CCn2c(C3CCOCC3)nc(-c3cccc4nc(-c5cnc(C)s5)c(C(F)F)cc34)c2C1 3.28

Answer with the recorded clearance for the compound listed here: CNC(=O)N1CCn2c(C3CCOCC3)nc(-c3cccc4cc(-c5cnc(C)s5)ncc34)c2C1 [Compound 4, reference compound] 33.5

====

assay_remarks: Metabolic stability in monkey liver microsomes
Type: in vitro ADME
conditions_used: pH 7.4, read-out: Liver microsomal clearance (t1/2), Monkey
Description: Microsomal stability. Microsomal stability assays were conducted on a Beckmann Biomek FXp laboratory automation system. The liver microsomal incubation mixture consisted of liver microsomes (0.5 mg microsomal protein/mL), the Compound (1 μM), MgCl2 (3 mM), and EDTA (1 mM) in potassium phosphate buffer (100 mM, pH 7.4). Midazolam and Ketanserin were used as the assay control substrates. […] After vortex and centrifugation, samples were analyzed by LC-MS/MS. […]
measure: half-life at 1 μM (min)
Unit min implied. Number only.

Answer with the recorded half-life at 1 μM for the compound listed here: CNC(=O)N1CCn2c(C3CCOCC3)nc(-c3cccc4nc(-c5cnc(C)s5)c(C(F)F)cc34)c2C1 23

====

assay_remarks: In vivo pharmacokinetics after a single dose, monkey
conditions_used: male, plasma; Cynomolgus monkey, 1 mg/kg IV
measure: half-life (h)
Unit h implied. Number only.

Answer with the recorded half-life for the compound listed here: CNC(=O)N1CCn2c(C3CCOCC3)nc(-c3cccc4nc(-c5cnc(C)s5)c(C(F)F)cc34)c2C1 [Compound 1] 1.65

====

Tested on: DOHH2 cells
assay_remarks: DOHH2 proliferation assay (CellTiter-Glo, day 7)
Format: cell-based
conditions_used: Homo sapiens, DOHH-2, 168 h; viability by CellTiter-Glo on day 7
measure: IC50 (nM)
Unit nM implied. Number only.

Observe how each entry below is paired with its result.
CNC(=O)N1CCn2c(C3CCOCC3)nc(-c3cccc4nc(-c5cnc(C)s5)c(C(F)F)cc34)c2C1    29
CC(=O)N1CCn2c(C3CCOCC3)nc(-c3cccc4nc(-c5ccc(C)nc5)c(C(F)F)cc34)c2C1    198
CNC(=O)N1CCn2c(C3CCOCC3)nc(-c3cccc4cc(-c5cnc(C)s5)ncc34)c2C1 [Compound 4, reference compound]    134

Answer with the recorded IC50 for the compound listed here: CC(=O)N1CCn2c(C3CCOCC3)nc(-c3cccc4nc(-c5cnc(C)s5)c(C(F)F)cc34)c2C1 215
